Values from PubChem BioAssay (NCI)

# System: NCI-H522 lung
# procedureText: NCI tumour cell line growth inhibition, 48 h
propertyMeasured: TGI (µM)

[[record]]
compound = "Nc1ccn(C2OC(CO)C(O)C2O)c(=O)n1 (stereo unspecified)"
testedtarget = "NCI-H522 lung"
propertymeasured = "TGI"
unittext = "µM"
cmp = ">"
recordedvalue = 500

[[record]]
compound = "CC1(C)OC2C(O)C(CO)OC2(C(F)F)O1 (stereo unspecified)"
testedtarget = "NCI-H522 lung"
propertymeasured = "TGI"
unittext = "µM"
cmp = ">"
recordedvalue = 100

[[record]]
compound = "C=CCC1(CN(C)C)CC/C(=C\\c2ccc(Cl)cc2)C1=O (stereo unspecified)"
testedtarget = "NCI-H522 lung"
propertymeasured = "TGI"
unittext = "µM"
cmp = "="
recordedvalue = 41.9

[[record]]
compound = "CC1C=CN(N(C)C)C2=C1C(=O)c1cnccc1C2=O (stereo unspecified)"
testedtarget = "NCI-H522 lung"
propertymeasured = "TGI"
unittext = "µM"
cmp = "="
recordedvalue = 0.55

[[record]]
compound = "C[C@H](Nc1cc(Cl)nc2c1cnn2[C@@H]1O[C@H](COP(=O)(O)CP(=O)(O)O)[C@@H](O)[C@H]1O)c1ccccc1F"
testedtarget = "NCI-H522 lung"
propertymeasured = "TGI"
unittext = "µM"
cmp = ">"
recordedvalue = 100

[[record]]
compound = "COc1ccc(/C=C2\\c3cc(OC)c(OC)cc3CCN2C(=O)c2ccccc2)cc1OC"
testedtarget = "NCI-H522 lung"
propertymeasured = "TGI"
unittext = "µM"
cmp = "="
recordedvalue = 45.4

[[record]]
compound = "[N-]=[N+]=N/C1=C/CCCCC(=O)C1"
testedtarget = "NCI-H522 lung"
propertymeasured = "TGI"
unittext = "µM"
cmp = ">"
recordedvalue = 100

[[record]]
compound = "CCOC(=O)C1SC(=Nc2ccccc2)N=C1C (stereo unspecified)"
testedtarget = "NCI-H522 lung"
propertymeasured = "TGI"
unittext = "µM"
cmp = ">"
recordedvalue = 100

[[record]]
compound = "CCOC(=O)NNC(=O)NCCCCNC(=O)NNC(=O)OCC"
testedtarget = "NCI-H522 lung"
propertymeasured = "TGI"
unittext = "µM"
cmp = ">"
recordedvalue = 100

[[record]]
compound = "C[C@H]1C(=O)O[C@@H]2CCN3CC=C(COC(=O)[C@](C)(O)[C@@]1(C)O)[C@H]23"
testedtarget = "NCI-H522 lung"
propertymeasured = "TGI"
unittext = "µM"
cmp = ">"
recordedvalue = 100

[[record]]
compound = "Cn1c2ccccc2c2ncc3[nH]c4ccccc4c3c21"
testedtarget = "NCI-H522 lung"
propertymeasured = "TGI"
unittext = "µM"
cmp = "="
recordedvalue = 33.2

[[record]]
compound = "O=c1nc(N2CCNCC2)oc2cc(Cl)oc(=O)c12"
testedtarget = "NCI-H522 lung"
propertymeasured = "TGI"
unittext = "µM"
cmp = "="
recordedvalue = 5.9

[[record]]
compound = "COc1ccc2c(c1)CCCN2CCCCCCCCCCN(CCC(C)C)CCC(C)C"
testedtarget = "NCI-H522 lung"
propertymeasured = "TGI"
unittext = "µM"
cmp = "="
recordedvalue = 5.68

[[record]]
compound = "Nc1ccccc1N=Cc1cc2cc([N+](=O)[O-])ccc2s1"
testedtarget = "NCI-H522 lung"
propertymeasured = "TGI"
unittext = "µM"
cmp = ">"
recordedvalue = 100

[[record]]
compound = "COc1ccc(/C(Cl)=C(\\C=O)c2ccc(OC)cc2)cc1"
testedtarget = "NCI-H522 lung"
propertymeasured = "TGI"
unittext = "µM"
cmp = ">"
recordedvalue = 100

[[record]]
compound = "C=C1C(=O)OC2CC(C)C(C(O)CC(C)O)=CCC12 (stereo unspecified)"
testedtarget = "NCI-H522 lung"
propertymeasured = "TGI"
unittext = "µM"
cmp = "="
recordedvalue = 3.29

[[record]]
compound = "CC(C)=CC1CC(=[N+]=[N-])C(=O)C1(C)C (stereo unspecified)"
testedtarget = "NCI-H522 lung"
propertymeasured = "TGI"
unittext = "µM"
cmp = ">"
recordedvalue = 100

[[record]]
compound = "CC1=C(/C=C/C(C)=C/C=C/C(C)=C/C(=O)OC2CC(n3cc(F)c(=O)[nH]c3=O)OC2CO)C(C)(C)CCC1 (stereo unspecified)"
testedtarget = "NCI-H522 lung"
propertymeasured = "TGI"
unittext = "µM"
cmp = "="
recordedvalue = 11.4

[[record]]
compound = "CS/C(=C(\\S)c1ccccc1)c1ccccc1"
testedtarget = "NCI-H522 lung"
propertymeasured = "TGI"
unittext = "µM"
cmp = ">"
recordedvalue = 100

[[record]]
compound = "CCOC(=O)c1c(-c2ccc(OC)cc2)c(C#N)c2c(C#N)c(N)nn2c1N"
testedtarget = "NCI-H522 lung"
propertymeasured = "TGI"
unittext = "µM"
cmp = "="
recordedvalue = 12.5

[[record]]
compound = "CSc1nc(NC2OC(COC(C)=O)C(OC(C)=O)C(OC(C)=O)C2OC(C)=O)c(N=CC=Nc2c(NC3OC(COC(C)=O)C(OC(C)=O)C(OC(C)=O)C3OC(C)=O)nc(SC)n(C)c2=O)c(=O)n1C (stereo unspecified)"
testedtarget = "NCI-H522 lung"
propertymeasured = "TGI"
unittext = "µM"
cmp = ">"
recordedvalue = 100

